FYI, the data here is from paper PMC9122904.

# targetOrTestSystem: T1, Spy_(29-124) K54D R55D (UniProt P77754 52-147, K54D | R55D)
# T1 construct: source: E. coli BL21 (DE3), purified (Ni-NTA, cation exchange, SEC); not shown: His6, N-terminal, cleaved; SUMO, N-terminal, cleaved
# T1 sequence (looked up): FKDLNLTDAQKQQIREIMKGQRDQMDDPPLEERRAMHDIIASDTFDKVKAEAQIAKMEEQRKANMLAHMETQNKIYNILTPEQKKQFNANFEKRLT
# assayName: BLI; Octet RED96; client biotinylated and loaded on streptavidin sensors; Spy or Spy variant in solution at 0.25, 0.5, 1, 1.5 and 2 μM; 40 mM HEPES, 150 mM NaCl, pH 7.5; Kd calculated as koff/kon
# runParameters: both partners purified
assayReadout: Kd (µM)
Give bare numbers, in µM.

-- ask Look at this binder and give its reported Kd. Im7 H40W L53A I54A (natural protein, biotin (EZ-link NHS-biotin, 1:1 molar ratio of biotin to protein), Im7 (colicin E7 immunity protein) with H40W L53A I54A; Spy was made with an N-terminal His6-SUMO tag that was cleaved; also called Im7AAW; partially folded client; source: purified by a similar procedure to Spy) MELKNSISDYTEAEFVQLLKEIEKENVAATDDVLDVLLEWFVKITEHPDGTDAAYYPSDNRDDSPEGIVKEIKEWRAANGKPGFKQG
-- reply 1.9
